# testedOn: P2Y purinoceptor 2 (Homo sapiens, UniProt P41231)
# Sequence (P41231 whole entry): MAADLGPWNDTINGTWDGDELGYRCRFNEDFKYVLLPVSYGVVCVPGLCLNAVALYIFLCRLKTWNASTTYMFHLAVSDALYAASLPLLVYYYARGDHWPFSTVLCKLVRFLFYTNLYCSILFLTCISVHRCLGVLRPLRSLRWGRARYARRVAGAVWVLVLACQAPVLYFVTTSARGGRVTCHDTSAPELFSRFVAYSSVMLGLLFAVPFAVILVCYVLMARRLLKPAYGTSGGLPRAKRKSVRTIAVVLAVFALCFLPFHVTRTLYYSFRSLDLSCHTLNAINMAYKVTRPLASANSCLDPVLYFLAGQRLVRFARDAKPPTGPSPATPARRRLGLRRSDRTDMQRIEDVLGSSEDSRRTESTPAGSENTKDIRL
# experimentSummary: Agonist activity at human recombinant P2Y2 receptor expressed in human 1321N1 cells assessed as [3H]inositol phosphate intracellular accumulation by scintillation proximity assay
# Format: functional, cell-based
pEC50: −log10 of the molar value.
Where pEC50 equals or exceeds 5, the correct label is t; where it does not, the label is f.

1) O=c1ccn([C@@H]2O[C@H](COP(=O)(O)OP(=O)(O)OP(=O)(O)O)[C@@H](O)[C@H]2O)c(=O)[nH]1 [URIDINE TRIPHOSPHATE] | t
2) O=c1[nH]c(=S)ccn1[C@@H]1O[C@H](COP(=O)(O)OP(=O)(O)C(F)(F)P(=O)(O)O)[C@@H](O)[C@H]1O | t
3) O=c1ccn([C@@H]2O[C@H](COP(=O)(O)O)[C@@H](O)[C@H]2O)c(SCc2ccccc2)n1 | f
4) CCCSc1nc(=O)ccn1[C@@H]1O[C@H](COP(=O)(O)O)[C@@H](O)[C@H]1O | t
5) COc1nc(=O)ccn1[C@@H]1O[C@H](COP(=O)(O)OP(=O)(O)O)[C@@H](O)[C@H]1O | t
6) CNc1nc(=O)ccn1[C@@H]1O[C@H](COP(=O)(O)O)[C@@H](O)[C@H]1O | f
7) O=c1ccn([C@@H]2O[C@H](COP(=O)(O)OP(=O)(O)O)[C@@H](O)[C@H]2O)c(=O)[nH]1 [URIDINE_DIPHOSPHATE] | f
